# assay.overview: Dog pharmacokinetics after IA injection (plasma, cartilage, bone, synovial fluid)
# Assay type: in vivo, beagle dogs
# condition.notes: male, beagle, dog, bone, other: intra-articular; dogs, IA suspension, 30 μg/knee, Day 45; read-out: Compound of Formula (I) Concentration, Bone
# Method: In rats and dogs, the pharmacokinetic profile, safety profile, tissue distribution and cartilage regeneration following a single intra-articular (IA) injection of the compound of Formula (I) in the plasma and the knee joint (cartilage and bone) was determined. The compound of Formula (I) (Form 1) was formulated as a suspension composition in 0.5% CMC/0.05% Polysorbate 80 in PBS. […]
recorded.metric: concentration at 45 day (ng/g)
Response body: numeric value in ng/g, unit text excluded.

Problem: // concentration at 45 day lookup, key: CC(C)CC(=O)Nc1cncc(-c2ccc3[nH]nc(-c4nc5c(-c6cccc(F)c6)cncc5[nH]4)c3c2)c1
Result: 586

----------
# assay.overview: Rat pharmacokinetics after IA injection (plasma, knee joint)
# Assay type: in vivo, Sprague Dawley rats
# condition.notes: Sprague Dawley, rat, cartilage, other: intra-articular injection; rats, single IA, 0.3 μg/knee, Day 30; read-out: Formula (I) concentration, Cartilage
recorded.metric: concentration at 30 day (ng/g)
Numeric answer only, unit ng/g assumed.

Problem: Fill in the blank: the reported concentration at 30 day of CC(C)CC(=O)Nc1cncc(-c2ccc3[nH]nc(-c4nc5c(-c6cccc(F)c6)cncc5[nH]4)c3c2)c1 is ____.
Result: 263

----------
# assay.overview: Solubility of the starting solid by the gravimetric method
# Format: physicochemical
# condition.notes: organic solvent or mixture, thermodynamic from solid; EA; RT; read-out: Solubility at RT
recorded.metric: solubility
Value and unit, in that order.

Problem: # lookup: solubility of CC(C)CC(=O)Nc1cncc(-c2ccc3[nH]nc(-c4nc5c(-c6cccc(F)c6)cncc5[nH]4)c3c2)c1
Result: 1000 µg/mL

----------
# assay.overview: Dog pharmacokinetics after IA injection (plasma, cartilage, bone, synovial fluid)
# Assay type: in vivo, beagle dogs
# condition.notes: dog; 3 μg/knee; Day 45
recorded.metric: total amount recovered from cartilage and bone tissues from the tibia (ng)
Give the number; ng is assumed, so skip it.

Problem: Can you share its total amount recovered from cartilage and bone tissues from the tibia? I mean this molecule: CC(C)CC(=O)Nc1cncc(-c2ccc3[nH]nc(-c4nc5c(-c6cccc(F)c6)cncc5[nH]4)c3c2)c1
Result: 152

----------
# assay.overview: Solubility of the starting solid by the gravimetric method
# Assay type: physicochemical
# condition.notes: organic solvent or mixture, thermodynamic from solid; Toluene; RT; read-out: Solubility at RT
recorded.metric: solubility
// return the numeric value with its unit appended

Problem: Quick one: solubility for CC(C)CC(=O)Nc1cncc(-c2ccc3[nH]nc(-c4nc5c(-c6cccc(F)c6)cncc5[nH]4)c3c2)c1 ?
Result: 1000 µg/mL

----------
# assay.overview: Solubility of the starting solid by the gravimetric method
# Assay type: physicochemical
# condition.notes: organic solvent or mixture, thermodynamic from solid; EtOH; 50° C.; read-out: Solubility at 50° C.
recorded.metric: solubility

Problem: Param item = CC(C)CC(=O)Nc1cncc(-c2ccc3[nH]nc(-c4nc5c(-c6cccc(F)c6)cncc5[nH]4)c3c2)c1 ; retrieve measured solubility.
Result: 2 mg/mL

----------
# assay.overview: Dog pharmacokinetics after IA injection (plasma, cartilage, bone, synovial fluid)
# Assay type: in vivo, beagle dogs
# condition.notes: male, beagle, dog, cartilage, other: intra-articular; dogs, IA suspension, 3 μg/knee, Day 91; read-out: Compound of Formula (I) Concentration, Cartilage
# Procedure: In rats and dogs, the pharmacokinetic profile, safety profile, tissue distribution and cartilage regeneration following a single intra-articular (IA) injection of the compound of Formula (I) in the plasma and the knee joint (cartilage and bone) was determined. The compound of Formula (I) (Form 1) was formulated as a suspension composition in 0.5% CMC/0.05% Polysorbate 80 in PBS. […]
recorded.metric: concentration at 91 day (ng/g)
Report the value in ng/g with no unit label.

Problem: Fill in: concentration at 91 day of CC(C)CC(=O)Nc1cncc(-c2ccc3[nH]nc(-c4nc5c(-c6cccc(F)c6)cncc5[nH]4)c3c2)c1 is ___
Result: 37

From: patent US10882860B2
